As shown below, each of these compounds has a reported IC50 value.
TEST_TARGET: full-length beta-Catenin (Uniprot ID P35222) (Homo sapiens, UniProt P35222)
Construct: 10 nM full-length beta-Catenin (Uniprot ID P35222)
Sequence (P35222 whole entry): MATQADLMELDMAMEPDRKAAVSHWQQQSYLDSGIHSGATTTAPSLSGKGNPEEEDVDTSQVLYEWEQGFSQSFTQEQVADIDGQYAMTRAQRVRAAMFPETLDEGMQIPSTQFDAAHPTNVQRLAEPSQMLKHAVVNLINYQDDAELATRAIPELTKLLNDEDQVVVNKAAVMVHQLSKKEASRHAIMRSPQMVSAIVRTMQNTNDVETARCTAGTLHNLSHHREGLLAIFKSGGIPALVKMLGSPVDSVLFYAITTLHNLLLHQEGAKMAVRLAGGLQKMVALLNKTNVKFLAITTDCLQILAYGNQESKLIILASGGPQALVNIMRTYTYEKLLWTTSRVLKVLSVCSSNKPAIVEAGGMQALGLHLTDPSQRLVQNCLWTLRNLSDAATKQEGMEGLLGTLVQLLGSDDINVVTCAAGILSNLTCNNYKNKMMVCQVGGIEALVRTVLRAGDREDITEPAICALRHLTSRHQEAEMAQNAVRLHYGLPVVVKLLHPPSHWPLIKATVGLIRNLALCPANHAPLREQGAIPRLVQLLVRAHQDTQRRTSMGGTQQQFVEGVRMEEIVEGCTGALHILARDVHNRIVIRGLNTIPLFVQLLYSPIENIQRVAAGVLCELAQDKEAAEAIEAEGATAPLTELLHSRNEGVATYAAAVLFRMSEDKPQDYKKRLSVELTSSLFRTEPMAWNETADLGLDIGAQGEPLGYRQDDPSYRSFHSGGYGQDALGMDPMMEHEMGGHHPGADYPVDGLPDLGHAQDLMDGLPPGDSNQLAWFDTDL
ASSAY_METHOD_TEXT: Fluorescence polarization IC50 (beta-catenin / 5FAM-TCF4 10-53 competition)
Type: binding
STATED_CONDITIONS: fluorescence polarization, beta-catenin; read-out: FP EC50
Write the number in µM without appending the unit.

COMPOUND	TEST_TARGET	ATTRIBUTE_MEASURED	ENDPOINT_RESULT
CC(=O)N1CCC[C@]12CC=CCCCC1(CCCC=CCCCOC(=O)N3CC[C@@](C(=O)N[C@@H](Cc4ccsc4)C(=O)N[C@@H](Cc4csc5ccccc45)C(=O)N[C@@H](Cc4ccc(O)cc4)C(N)=O)(C3)NC(=O)[C@H](CC(N)=O)NC(=O)[C@H](Cc3ccccc3)NC(=O)[C@H](C)NC(=O)[C@H](C)NC(=O)[C@H](CN(CC(=O)O)CC(F)(F)F)NC(=O)[C@H](CC(=O)O)NC1=O)NC(=O)[C@H](CC(C)(C)C)NC(=O)[C@H](CC(=O)O)NC2=O (stereo partly drawn) [I-952]	full-length beta-Catenin (Uniprot ID P35222) (Homo sapiens, UniProt P35222)	IC50	1.21
CC(=O)N1CCC[C@]12CC=CCCCC1(CCCC=CCCCOC(=O)N3CC[C@@](C(=O)N[C@@H](Cc4ccsc4)C(=O)N[C@@H](Cc4csc5ccccc45)C(=O)N[C@@H](CCO)C(N)=O)(C3)NC(=O)[C@H](CC(N)=O)NC(=O)[C@H](Cc3ccccc3)NC(=O)[C@H](C)NC(=O)[C@H](C)NC(=O)[C@H](CN(CC(=O)O)CC(F)(F)F)NC(=O)[C@H](CC(=O)O)NC1=O)NC(=O)[C@H](CC(C)(C)C)NC(=O)[C@H](CC(=O)O)NC2=O (stereo partly drawn) [I-951]	full-length beta-Catenin (Uniprot ID P35222) (Homo sapiens, UniProt P35222)	IC50	1.47

Input: Record request: IC50 value, item CC(=O)N1CCC[C@]12CC=CCCCC1(CCCC=CCCCOC(=O)N3CC[C@@](C(=O)N[C@@H](Cc4ccsc4)C(=O)N[C@@H](Cc4csc5ccccc45)C(=O)N[C@@H](C(N)=O)[C@H](C)O)(C3)NC(=O)[C@H](CC(N)=O)NC(=O)[C@H](Cc3ccccc3)NC(=O)[C@H](C)NC(=O)[C@H](C)NC(=O)[C@H](CN(CC(=O)O)CC(F)(F)F)NC(=O)[C@H](CC(=O)O)NC1=O)NC(=O)[C@H](CC(C)(C)C)NC(=O)[C@H](CC(=O)O)NC2=O (stereo partly drawn) [I-949]
Output: 2.26
